Target: YWHAG
Assay: pooled miR-30 sensor sort-seq; sequence = guide strand
Conditions: shRNA
Decide by sensor-assay potency score (higher = more potent): equal to or exceeding -0.8 means 1 (yes), less means 0 (no).

orderedResidues | groupLabel
TGAATCTACAGAACAGTCCAGA | 1 (yes)
TCCTTCTCTATCTTCTCCCGGT | 0 (no)
TTAAGTTTTCTTTTCATCTGAA | 1 (yes)
TTCGCTGTAGGCCTTCTCGGAG | 0 (no)
AATACCAGCACAGCTAGCCTGA | 1 (yes)

* * *

Molecular target: PTH2R
Assay: pooled miR-30 sensor sort-seq; sequence = guide strand
Settings: shRNA
propertyLabel: sensor-assay potency score (higher = more potent)

orderedResidues | result
TAAGCTGTGCATAAAATCCCAT | -0.0361
TTTAGATCCTAATTGCTCCTAT | 0.713
TAGAATATCATCTCCCTGCCTC | -0.315
TTAAGTAACACCTTAACTGAAT | -1.01
TAAATAAACATCACAACAGCAA | -0.154
TAGAACTCTAACCGTATTCAGA | -0.533

* * *

Target: NAT9
Assay: pooled miR-30 sensor sort-seq; sequence = guide strand
Conditions: shRNA
Threshold rule: sensor-assay potency score (higher = more potent) greater than or equal to -0.3 is label 1; below that, label 0.

orderedResidues | groupLabel
TTGTTCACATGCAGTCTGCTGT | label 0
TAGATCTGTGAGGAAGAGGTTC | label 0
TCAAACGCTGCAGCTCCTCTGA | label 0
TACACTTGTCTGCATCTTCCTG | label 0
ACACTTGTCTGCATCTTCCTGC | label 1
TAAGGCTTCTCTTCCACGTGGC | label 1

* * *

Molecular target: SCN4A
Assay: pooled miR-30 sensor sort-seq; sequence = guide strand
Settings: shRNA
Is sensor-assay potency score (higher = more potent) at least -0.2? Then true (1). If not, false (0).

orderedResidues | testedOn | groupLabel
TTGTAGTCAGCTGTGCTGCAGA | SCN4A | false (0)
TGCAGTAGTAGAACTTGCCGGC | SCN4A | true (1)
TTGACCTTGACATTGAGCCAGC | SCN4A | false (0)
TAGTCCTGTGTCATGAGGCGGA | SCN4A | false (0)
TTGATGCAGTAGTAGAACTTGC | SCN4A | false (0)
TGCTCGACAATCTTGAAGCAGG | SCN4A | false (0)
TTGAGCACGATGCAGATGGTGA | SCN4A | false (0)
TTCAGAACCATCTCTGCTGTGA | SCN4A | true (1)

* * *

Measured sensor-assay potency score (higher = more potent) of individual entries
Molecular target: STARD3
Assay: pooled miR-30 sensor sort-seq; sequence = guide strand
Conditions: shRNA
propertyLabel: sensor-assay potency score (higher = more potent)

orderedResidues | numericValue
TTTTCTTCCCAGCAACTTCTTC | -1.04
TTATTCTTCTCAAACTTCCAGT | -0.167
TAGGACTTTGAAGTCAAGGAAC | -1.37
TGTGTTGGTATTCAGTTCGATG | -1.58

* * *

Target: RABGEF1
Test: pooled miR-30 sensor sort-seq; sequence = guide strand
Conditions: shRNA
propertyLabel: sensor-assay potency score (higher = more potent)

orderedResidues | numericValue
TTTCTTTTCTTCAAACTTGGAG | -0.131
TTAGTTACATTCTAGATCCCAA | 0.187
TTATCTTCTCGACTCTTTCTGG | -0.279
TTCTTTTCTTCAAACTTGGAGA | -0.783
TTCACTGTGGTAACCTTGCGGG | -0.0581
TTCTTCAATGCTTAGATCCCTT | -0.412
TTTCTTGCACAGGAGATCCGAT | -0.404
TTTCAGAGTCAATAGCTGCTAA | -0.257

* * *

Recorded measurements of sensor-assay potency score (higher = more potent), one per entry
Target: FH
Test: pooled miR-30 sensor sort-seq; sequence = guide strand
Conditions: shRNA
propertyLabel: sensor-assay potency score (higher = more potent)

orderedResidues | testedOn | numericValue
TTCATCAGCTTGTTGATCCTTT | FH | 0.529
TATTGCATTAGCAATCTTTGGA | FH | 0.0448
TTTCCTTTAAGGTTGATCCATT | FH | -0.612
TAACACATTTTTAATCATCATT | FH | -1.28
TTTATTAACATGATCGTTGGGA | FH | 0.847
AACATAACCACTAAATTCCTGC | FH | -0.241
TTTACATTCATATTTGTCTGAG | FH | -0.0374
TTCTGTCACACCTCCAATCTTA | FH | -0.00125
TTACTTGTTGAACATAACCACT | FH | -1.14
TTGCTTCACACTGAGTAGGGTT | FH | -0.374
TATTGCAGCAGCAATGTGCATT | FH | -0.245
TTGCATTAGCAATCTTTGGATC | FH | -0.818
TGGATCAAGACCATAATCCTGG | FH | 0.098
TCATATTTGTCTGAGTTCCTGA | FH | 0.043
TTGTCTGAGTTCCTGATCCAGT | FH | -0.75
TTACATTCATATTTGTCTGAGT | FH | 0.037

* * *

Biological target: THOC7
Assay: pooled miR-30 sensor sort-seq; sequence = guide strand
Conditions: shRNA
propertyLabel: sensor-assay potency score (higher = more potent)

orderedResidues | numericValue
TTTTGCTTGAAGAATTTGCTTT | -0.308
TAAGAAGAACATGAAACTGTTT | -0.283
TTTGCTTGAAGAATTTGCTTTT | -0.209
TTCGTATTCGTTTTGCTTGAAG | -0.51
TTTCCGTCTCAATTCCAGCTTA | -0.243
TATGCTACATTCTATTTCCTTG | -0.777
TAATTCTCCGATCATCTCCAGC | -0.503
TAATGTGTGAAAGATGCTCTAA | 0.0139

* * *

Target: GALNTL4
Test: pooled miR-30 sensor sort-seq; sequence = guide strand
Conditions: shRNA
propertyLabel: sensor-assay potency score (higher = more potent)

orderedResidues | result
ATATTCGGTCAGCTTCTCCTTC | -0.121
TTGTCATCATCATCCACGGTGG | -0.503
TCGGTTGTCATCATCATCCACG | -0.664
TTGATATCATACCATCACCTAC | -1.18
TTGACGTCCACCAGGCATCGGT | -0.813

* * *

Target: LTA4H
Assay: pooled miR-30 sensor sort-seq; sequence = guide strand
Details: shRNA
propertyLabel: sensor-assay potency score (higher = more potent)

orderedResidues | result
TATATCTGTCAGATCAACCACA | 0.143
TGTAACTTTGTCTTTCTCCAAG | -0.956
TTTGACTTCTTGTCCATTGATC | -0.618
TTTTTCTATTGTAAGGTCCTTT | 0.0919
TTTCACAGAAGGAGTGTCCTGA | 0.561
TTGGAGAGTGACTTGTCGCCTG | 0.145
TTGATGAGAAGAGAGATCCTTC | 0.703

* * *

Listed next: entries and their corresponding sensor-assay potency score (higher = more potent).
Target: SC5DL
Assay: pooled miR-30 sensor sort-seq; sequence = guide strand
Details: shRNA
propertyLabel: sensor-assay potency score (higher = more potent)

orderedResidues | result
TAAACTTAATCTCTCGACGGAC | -0.573
TATCATTATCATACCAACGTTG | -0.725
TATATGGTAAGGTAGACTCTGA | -0.406
TTTCATTAATGCATGATCGAAG | -0.355
TTGAATGAGCCGCCAATCCTAT | -0.95

* * *

Target: TFAP4
Test: pooled miR-30 sensor sort-seq; sequence = guide strand
Settings: shRNA
Decision: sensor-assay potency score (higher = more potent) >= -1 yields Y, all other cases yield N.

orderedResidues | groupLabel
TTGCTGTTGGCGATCTCCCGCC | Y
TGCTGAGCTTCTCTCCGTCTGT | Y
TTCCCGCTCCAGCTTCTCCTGG | N
TTCACGATGACAGCTCGCCGCT | N
TTGGCAAGGCTACAGAGCCCTC | N
ATCACCTTGAGCTTTTCCGGGT | Y
TTCGTCCTTGTCCTCTGCCCGC | N
TTCTCTCCGTCTGTGTGGGGGA | Y
TTGAGGGACTGGAATCCCGCGT | Y

* * *

Quick reference for sensor-assay potency score (higher = more potent) among some sequences
Target: APLNR
Assay: pooled miR-30 sensor sort-seq; sequence = guide strand
Conditions: shRNA
propertyLabel: sensor-assay potency score (higher = more potent)

orderedResidues | result
TAGCGGTCGAAGCTGAGGCCGG | -1.22
TTTTACTGCGTCCAGACTCAGG | -1.25
TTGACGTAGCTGATGCAGGTGC | 0.046
TATCTAGTCAGTGTCATGGTGC | -0.323
TTCTCGTGCATCTGTTCTCCAC | -0.937
TTGACGAAGATGAGGTAGCTGC | -0.686
